molecular target: BRSK1 (human); assay: radiometric filter-binding kinase assay, Kinase HotSpot; conditions: compound 0.5 µM; ATP 10 µM
param class (str): category from residual activity; see ranges low = under 80%, middle = from 80% up to 90%, high = 90% and over

Consider the worked cases shown below.
smilesRecord | className
Cn1cc(/C=C2\C(=O)Nc3ccc(S(N)(=O)=O)cc32)c2ccccc21 | low
O=c1c2ccccc2[nH]c(=S)n1CCN1CCC(=C(c2ccc(F)cc2)c2ccc(F)cc2)CC1 | high
N#CCCc1ccc2c(c1)-c1[nH]c3ccc([N+](=O)[O-])cc3c1CC(=O)N2 | low
O=C1NC(=O)c2c1c1c3ccccc3[nH]c1c1[nH]c3cc(Br)ccc3c21 | low
CCOc1cc2ncnc(Nc3cccc(Br)c3)c2cc1OCC | middle
O=C(c1ccccc1)c1ccc(N2CCOCC2)cc1O | high

Any idea which band COc1cccc(-c2cc(=O)c3ccccc3o2)c1N is in?
middle

Any idea which band N#C/C(=C1/Nc2ccccc2S1)c1ccnc(NCCc2cccnc2)n1 is in?
high

Any idea which band O=C1NC(=O)c2cc(Nc3ccc(F)cc3)c(Nc3ccc(F)cc3)cc21 is in?
high

* * *

A collection of compounds and their measured residual activity
target: CHEK2 (human) (UniProt O96017); assay: radiometric filter-binding kinase assay, Kinase HotSpot; conditions: compound 0.5 µM; ATP 10 µM
Sequence (O96017 whole entry, looked up): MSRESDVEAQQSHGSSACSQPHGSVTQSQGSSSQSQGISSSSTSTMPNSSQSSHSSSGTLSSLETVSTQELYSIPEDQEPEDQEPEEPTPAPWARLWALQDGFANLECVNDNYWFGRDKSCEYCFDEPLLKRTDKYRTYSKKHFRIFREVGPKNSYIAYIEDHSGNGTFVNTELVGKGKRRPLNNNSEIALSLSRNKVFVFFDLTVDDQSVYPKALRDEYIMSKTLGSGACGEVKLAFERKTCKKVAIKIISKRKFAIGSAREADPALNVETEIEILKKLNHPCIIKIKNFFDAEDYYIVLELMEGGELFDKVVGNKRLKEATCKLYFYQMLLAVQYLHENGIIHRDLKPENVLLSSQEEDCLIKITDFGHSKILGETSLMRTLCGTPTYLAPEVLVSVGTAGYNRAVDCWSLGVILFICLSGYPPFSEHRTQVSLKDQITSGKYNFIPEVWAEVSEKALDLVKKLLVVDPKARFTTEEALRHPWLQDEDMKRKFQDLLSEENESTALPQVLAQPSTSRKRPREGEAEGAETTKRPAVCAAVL
Please answer using the number first and the unit second.

Solved cases (2 shown):
smilesRecord | residual activity
O=c1[nH]c2ccccc2n1C1CCN(Cc2ccc(-c3nc4cc5[nH]cnc5cc4nc3-c3ccccc3)cc2)CC1 | 100%
COc1cc2c(cc1OC)-c1[nH]nc(Nc3cccc(F)c3)c1C2 | 96.5%

API: the following record is the query input.
Fill in: residual activity of N#C/C(=C1/Nc2ccccc2S1)c1ccnc(NCCc2cccnc2)n1 is ___
93.9%

* * *

biological target: STK11 (human); experiment: radiometric filter-binding kinase assay, Kinase HotSpot; conditions: compound 0.5 µM; ATP 10 µM
resultType: residual activity (%)
Write it as a number; the unit % goes unstated.

Solved cases (5 shown):
smilesRecord | residual activity, %
c1ccc(-c2cnc(Nc3ccc(OCCN4CCCC4)cc3)s2)cc1 | 103
O=C1NC(=O)c2cc(Nc3ccc(F)cc3)c(Nc3ccc(F)cc3)cc21 | 98.2
CCOc1cc2ncnc(Nc3cccc(Br)c3)c2cc1OCC | 88
Cn1cc(/C=C2\C(=O)Nc3ccc(S(N)(=O)=O)cc32)c2ccccc21 | 68.2
O=C(c1ccccc1)c1ccc(N2CCOCC2)cc1O | 104

API: the following record is the query input.
# returns recorded residual activity (system: STK11 (human)) for N#C/C(=C1/Nc2ccccc2S1)c1ccnc(NCCc2cccnc2)n1
79.4

* * *

A collection of compounds and their measured residual activity
target: SLK (human) (UniProt Q9H2G2); experiment: radiometric filter-binding kinase assay, Kinase HotSpot; details: compound 0.5 µM; ATP 10 µM
Sequence (Q9H2G2 whole entry, looked up): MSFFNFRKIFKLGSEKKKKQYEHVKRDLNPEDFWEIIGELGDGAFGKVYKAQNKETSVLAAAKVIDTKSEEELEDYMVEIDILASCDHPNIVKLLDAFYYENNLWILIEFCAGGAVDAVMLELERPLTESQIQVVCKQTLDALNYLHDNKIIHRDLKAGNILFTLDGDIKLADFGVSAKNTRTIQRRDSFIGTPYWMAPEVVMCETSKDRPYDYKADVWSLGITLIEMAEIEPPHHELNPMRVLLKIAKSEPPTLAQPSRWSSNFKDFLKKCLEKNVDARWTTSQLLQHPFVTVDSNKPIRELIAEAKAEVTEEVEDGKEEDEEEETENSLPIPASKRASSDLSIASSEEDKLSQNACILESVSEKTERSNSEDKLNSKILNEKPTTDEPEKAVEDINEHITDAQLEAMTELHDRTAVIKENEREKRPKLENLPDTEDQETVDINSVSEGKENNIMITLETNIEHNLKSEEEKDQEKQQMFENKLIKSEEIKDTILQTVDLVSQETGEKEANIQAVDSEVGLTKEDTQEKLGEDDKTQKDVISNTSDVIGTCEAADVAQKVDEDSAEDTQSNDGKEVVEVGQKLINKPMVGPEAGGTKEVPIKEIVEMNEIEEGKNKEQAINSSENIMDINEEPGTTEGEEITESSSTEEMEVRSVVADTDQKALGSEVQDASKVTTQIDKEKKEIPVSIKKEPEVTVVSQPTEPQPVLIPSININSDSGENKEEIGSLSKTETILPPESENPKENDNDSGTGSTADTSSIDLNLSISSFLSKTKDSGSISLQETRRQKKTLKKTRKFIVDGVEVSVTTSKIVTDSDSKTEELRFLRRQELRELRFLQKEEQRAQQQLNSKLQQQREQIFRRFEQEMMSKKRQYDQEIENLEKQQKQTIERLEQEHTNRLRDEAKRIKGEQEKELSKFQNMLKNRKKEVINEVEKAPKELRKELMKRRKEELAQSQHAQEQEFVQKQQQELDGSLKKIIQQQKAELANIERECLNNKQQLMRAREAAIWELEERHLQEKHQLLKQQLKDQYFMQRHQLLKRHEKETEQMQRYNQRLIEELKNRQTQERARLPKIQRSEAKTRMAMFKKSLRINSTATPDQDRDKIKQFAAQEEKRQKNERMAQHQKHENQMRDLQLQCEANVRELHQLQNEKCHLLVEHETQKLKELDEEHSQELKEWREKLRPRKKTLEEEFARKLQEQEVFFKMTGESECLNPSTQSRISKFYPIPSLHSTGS
Write it as a number; the unit % goes unstated.

# returns recorded residual activity (system: SLK (human) (UniProt Q9H2G2)) for O=c1c2ccccc2[nH]c(=S)n1CCN1CCC(=C(c2ccc(F)cc2)c2ccc(F)cc2)CC1
103

# returns recorded residual activity (system: SLK (human) (UniProt Q9H2G2)) for Nc1ncnc2c1cnn2-c1ccccc1
98

# returns recorded residual activity (system: SLK (human) (UniProt Q9H2G2)) for COc1cccc(-c2cc(=O)c3ccccc3o2)c1N
102

# returns recorded residual activity (system: SLK (human) (UniProt Q9H2G2)) for COc1cc2c(N3CCN(C(=O)Nc4ccc(OC(C)C)cc4)CC3)ncnc2cc1OCCCN1CCCCC1
94.6

# returns recorded residual activity (system: SLK (human) (UniProt Q9H2G2)) for O=C1NC(=O)c2cc(Nc3ccc(F)cc3)c(Nc3ccc(F)cc3)cc21
65.5

Data provenance: the kinase profiling compilation of Christmann-Franck et al. (2016)
